Tested on: Monochoria vaginalis (Burm. f.) Presl var. plantaginea (Roxb.) Solms-Laub.
methodNotes: Test Example 1: herbicidal effects in paddy field soil treatment
Type: in vivo
Parameters: scale not given here
conditionSummary: 1000 g active ingredient per hectare, 21st day after treatment
metric: Herbicidal effect index, Monochoria vaginalis

Below: 4 compounds and their reported Herbicidal effect index, Monochoria vaginalis.
Cc1ccccc1-n1c(=O)c(C(=O)C2=C(O)CCCC2=O)cc2cccnc21 [II-48]; 5
CCCn1c(=O)c(C(=O)C2=C(O)CCCC2=O)cc2cccnc21 [II-4]; 5
CCc1ccc2cc(C(=O)C3=C(O)CCCC3=O)c(=O)n(C)c2n1 [II-434]; 5
O=C1CCCC(O)=C1C(=O)c1cc2ncccc2n(-c2ccccc2)c1=O [III-41]; 4

Now consider the entry below.
Value of measured Herbicidal effect index, Monochoria vaginalis for the entry O=C1CCCC(O)=C1C(=O)c1cc2cccnc2n(-c2ccccc2)c1=O [II-41] : 5

----------
Tested on: Monochoria vaginalis (Burm. f.) Presl var. plantaginea (Roxb.) Solms-Laub.
methodNotes: Test Example 1: herbicidal effects in paddy field soil treatment
Type: in vivo
Set-up: scale not given here
conditionSummary: 1000 g active ingredient per hectare, 21st day after treatment
Here, each record is paired with measured Herbicidal effect index, Monochoria vaginalis data.
Give the figure by itself; no unit, no explanation.

Below: 3 compounds and their reported Herbicidal effect index, Monochoria vaginalis.
O=C1CCCC(O)=C1C(=O)c1ccc2ccccc2n1 [Comparative compound B, reference compound]; 0
CC1(C)CC(=O)C(C(=O)c2cnc3ccccc3n2)=C(O)C1 [Comparative compound C, reference compound]; 2
CC(C)c1ccc2cc(C(=O)C3=C(O)CCCC3=O)c(=O)n(C)c2n1; 5

Let us move to another entry and its Herbicidal effect index, Monochoria vaginalis.
// Cc1ccc2cc(C(=O)C3=C(O)CCCC3=O)c(=O)n(-c3ccccc3)c2n1 : Herbicidal effect index, Monochoria vaginalis value = 5

----------
Test system: Echinochloa crus-galli (L.) P. Beauv. var. crus-galli
methodNotes: Test Example 3: herbicidal effects in farmland foliar treatment
Type: in vivo
Set-up: scale not given here
conditionSummary: 1000 g active ingredient per hectare, 14th day after treatment
List of Herbicidal effect index, Echinochloa crus-galli values.
Answer field: number only, no words.

Please review the following examples before continuing.
CC(C)c1ccc2cc(C(=O)C3=C(O)CCCC3=O)c(=O)n(-c3ccccc3)c2n1; 5
O=C1CCCC(O)=C1C(=O)c1cc2cccnc2n(-c2ccc3c(c2)OCCO3)c1=O; 5
O=C1CCCC(O)=C1C(=O)c1cc2ccc(C(F)(F)F)nc2n(-c2ccccc2)c1=O; 5
Cc1ccc2cc(C(=O)C3=C(O)CCCC3=O)c(=O)n(C)c2n1; 4

Now consider the entry below.
// field: Herbicidal effect index, Echinochloa crus-galli; key: COc1ccc(-n2c(=O)c(C(=O)C3=C(O)CCCC3=O)cc3cccnc32)cc1 ; value = 5

----------
Below is a list of entries, each paired with its recorded Herbicidal effect index, Setaria viridis value.
System: Setaria viridis
methodNotes: Test Example 2: herbicidal effects in farmland soil treatment
Assay type: in vivo
Parameters: scale not given here
conditionSummary: 1000 g active ingredient per hectare, 21st day after treatment
Enter a number only.

Worked examples follow.
O=C1CCCC(O)=C1C(=O)c1cc2cccnc2n(-c2ccc3c(c2)OCCO3)c1=O; 5
O=C1CCCC(O)=C1C(=O)c1cc2ccc(C(F)F)nc2n(-c2ccccc2)c1=O; 5
Cn1c(=O)c(C(=O)C2=C(O)CCCC2=O)cc2ccc(C(F)F)nc21; 3
O=C1CCCC(O)=C1C(=O)c1cc2cccnc2n(Cc2ccccc2)c1=O; 3
Cc1ccc2cc(C(=O)C3=C(O)CCCC3=O)c(=O)n(-c3ccccc3)c2n1; 5

Per the records, this compound ( COc1cccc(-n2c(=O)c(C(=O)C3=C(O)CCCC3=O)cc3cccnc32)c1 ) has Herbicidal effect index, Setaria viridis equal to 5

response.value for O=C1CCCC(O)=C1C(=O)c1cc2cccnc2n(-c2cccc(F)c2)c1=O (field: Herbicidal effect index, Setaria viridis) = 5

The value of Herbicidal effect index, Setaria viridis measured for the compound O=C1CCCC(O)=C1C(=O)c1cc2ccc(C(F)(F)Cl)nc2n(-c2ccccc2)c1=O turned out to be 5

Input O=C1CCCC(O)=C1C(=O)c1ccc2ccccc2n1 [Comparative compound B, reference compound] . Output Herbicidal effect index, Setaria viridis: 0
